B1: Twister Ribozyme (parent)
chain: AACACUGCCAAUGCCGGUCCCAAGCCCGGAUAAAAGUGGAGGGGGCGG

# Variants of: B1
# Measurement description: self-cleavage, relative activity (ratio to wild type); higher = more cleavage; co-transcriptional
Recorded self-cleavage values for a group of variants are listed next.

Sequence change: A10C A22U
self-cleavage: 0.78
--
Sequence change: G28A G48A
self-cleavage: 0.775
--
Sequence change: C20U A40U
self-cleavage: 0.125
--
Sequence change: G17A G38A
self-cleavage: 0.498
--
Sequence change: C3U C15A
self-cleavage: 0.195
--
Sequence change: C25G G45A
self-cleavage: 0.132
--
Sequence change: A10U G43U
self-cleavage: 0.501
--
Sequence change: C25G G36U
self-cleavage: 0.103
--
Sequence change: C25U G48A
self-cleavage: 0.559
--
Sequence change: U31C
self-cleavage: 1.01
--
Sequence change: C3A G13U
self-cleavage: 0.127
--
Sequence change: C27G G43U
self-cleavage: 0.0926
--
Sequence change: A22C G47C
self-cleavage: 0.458
--
Sequence change: C5A U18A
self-cleavage: 0.118
--
Sequence change: C5A G17C
self-cleavage: 0.0425
--
Sequence change: A23C G45U
self-cleavage: 0.156
--
Sequence change: C9G G28C
self-cleavage: 0.495
--
Sequence change: C15U C26G
self-cleavage: 0.0693
--
Sequence change: C8A G41U
self-cleavage: 0.146
--
Sequence change: C15A U18C
self-cleavage: 0.104
--
Sequence change: U37A G41U
self-cleavage: 0.115
--
Sequence change: U12C G29U
self-cleavage: 0.746
--
Sequence change: C26U G36U
self-cleavage: 0.133
--
Sequence change: C26G A35G
self-cleavage: 0.16
--
Sequence change: U37G A40G
self-cleavage: 0.155
--
Sequence change: G17C A40G
self-cleavage: 0.0717
--
Sequence change: G7A A34C
self-cleavage: 0.118
--
Sequence change: A23G A35U
self-cleavage: 0.472
--
Sequence change: A32G G45A
self-cleavage: 0.921
--
Sequence change: A10G G42A
self-cleavage: 0.509
--
Sequence change: A4C G17A
self-cleavage: 0.0548
--
Sequence change: A1C A2U
self-cleavage: 0.346
--
Sequence change: G36C G45C
self-cleavage: 0.201
--
Sequence change: A22C G41C
self-cleavage: 0.195
--
Sequence change: C9U A40C
self-cleavage: 0.161
--
Sequence change: A22G C46G
self-cleavage: 0.328
--
Sequence change: G7U A33G
self-cleavage: 0.0484
--
Sequence change: G17C G36C
self-cleavage: 0.0812
--
Sequence change: A2G G36A
self-cleavage: 0.118
--
Sequence change: U12G C25U
self-cleavage: 0.675
--
Sequence change: A4C C26U
self-cleavage: 0.0418
--
Sequence change: G7A G45A
self-cleavage: 0.397
--
Sequence change: C25G G38U
self-cleavage: 0.131
--
Sequence change: A23G G24U
self-cleavage: 0.063
--
Sequence change: A1U U31A
self-cleavage: 0.0544
--
Sequence change: U12G A34G
self-cleavage: 0.608
